These entries and their values trace back to patent US10501502B2.

Test: FP purification and fluorescence characterization in vitro (spectra, extinction coefficient, quantum yield)
Type: physicochemical
OUTCOME MEASURE: quantum yield (QY) (%)
Could you give me the number in %? Just the number is fine.

Bench note: what quantum yield (QY) did R4-1: evolved APCα FP, SEQ ID NO: 5, with BV (protein, biliverdin chromophore; smRUFP Variant Polypeptide) MKTGEQRVKIATLLSENEKKIVDKASQDLWRRRPDFIAPGGIAFSQRERALCLRDYRWYLHLITFCLLAGDKDPIESIGLIGIREMYNSLGVPVPGMMESIRCLKEASLSLLDEEDAKETAPYFDYIIKAMS show?
9.0

Would you mind telling me what quantum yield (QY) value was observed for R2-1 + PCB: evolved APCα FP, SEQ ID NO: 3, with PCB (protein, phycocyanobilin chromophore; smRUFP Variant Polypeptide) MKTGEQRVKIATLLSENEKKIVDKASQDLWRRRPDFIAPGGIAFGQRERALCLRDYGWYLRLITFCLLAGDKDPIESIGLIGVREMYNSLGVPVPGMVESIRCLKEASLSLLDEEDAKETAPYFDYIIQAMS ?
7.2

Could you tell me which quantum yield (QY) is on file for R7-7: evolved APCα FP, SEQ ID NO: 8, with BV (protein, biliverdin chromophore; smRUFP Variant Polypeptide) MKTCEQRVKIATLLSENKKKIVDKASQDLWRRHPDLIAPGGIAFSQRERALCLRDYGWYLHLITFCLLAGDKGPIESIGLIGIREMYNSLGVPVPGMMESIRCLKEASLSLLDEEDAKETAPYFDYIIKAIS ?
16

Returns the measured quantum yield (QY) for the input molecule. Input: R3-2 + PCB: evolved APCα FP, SEQ ID NO: 4, with PCB (protein, phycocyanobilin chromophore; smRUFP Variant Polypeptide) MKTGEQRVKIATLLSENEKKIVDKASQDLWRRRPDFIAPGGIAFGQRERALCLRDYGWYLRLITFCLLAGDKDPIESIGLIGIREMYNSLGVPVPGMMESIRCLKEASLSLLDEEDAKETAPYFDYIIQAMS
13

Looking for the measured quantum yield (QY) of R10-10: evolved APCα FP, SEQ ID NO: 11, with BV (protein, biliverdin chromophore; smRUFP Variant Polypeptide) MKTCEQRVNIATLLTENKKKIVDKASQDLWRRHPDLIAPGGIAFSQRDRALCLRDYGWYLHLITFCLLAGDKGPIESIGLIGIREMYNSLGVPVPAMMESIRCLKEASLSLLDEEDANETAPYFDYIIKAMS , can you help?
15
